tested on: NCI-H460 lung; assay: NCI-60 one-dose screen, 48 h; conditions: 10 µM unless noted
The panel holds about 83,000 compounds, 20% with a hit somewhere; the sample as a whole holds those more often. The source made the active and inactive calls. The calls were made as follows: active = growth percent below 10; inactive = the rest.
Respond with a class label; see Yes = active, No = inactive

Past entries and their recorded results:
INSERT INTO assay_data (molecule, label_class) VALUES
  ('CN1CCN(c2ccc(Nc3nc(NCCNS(=O)(=O)c4ccc(Cl)cc4)c4sccc4n3)cc2)CC1', 'No'),
  ('Clc1ccc2[nH]cc(-c3nn4cc(-c5ccncc5)nc4s3)c2c1', 'No'),
  ('Cn1cc(-c2nnc(N)nc2-c2c[nH]c3ccc(F)cc23)c2cc(Br)ccc21', 'No'),
  ('C/C(CC1(O)C(=O)Nc2ccccc21)=N\O (centres undefined)', 'No'),
  ('CCCCCCOC(=O)c1cc(-c2ccc(F)cc2)nc2ccccc12', 'No'),
  ('O=C1[C@@H]2Cc3c([nH]c4ccccc34)[C@H](c3ccc(Cl)cc3)N2C(=O)CN1C1CCN(Cc2ccccc2)CC1', 'No'),
  ('CN1CCN(Cc2ccc(NC(=O)c3cncc(C#Cc4cnc5ccc(N6CCOCC6)nn45)c3)cc2C(F)(F)F)CC1', 'Yes'),
  ('O=C(CSc1nnc(-c2ccc(Cl)cc2)n1-c1ccccc1)Nc1cccc(F)c1', 'No');

// outcome(item) with item = CCN(CC)CCOc1ccc(C(=C(C)c2ccc(OC)cc2)c2ccc(OCCN(CC)CC)cc2)cc1
Yes
